Data provenance: patent US10370352B2

Here the recorded Efficacy is given for each entry.
Biological target: human ASK1 (Homo sapiens (Human), UniProt Q99683)
Sequence (Q99683 whole entry): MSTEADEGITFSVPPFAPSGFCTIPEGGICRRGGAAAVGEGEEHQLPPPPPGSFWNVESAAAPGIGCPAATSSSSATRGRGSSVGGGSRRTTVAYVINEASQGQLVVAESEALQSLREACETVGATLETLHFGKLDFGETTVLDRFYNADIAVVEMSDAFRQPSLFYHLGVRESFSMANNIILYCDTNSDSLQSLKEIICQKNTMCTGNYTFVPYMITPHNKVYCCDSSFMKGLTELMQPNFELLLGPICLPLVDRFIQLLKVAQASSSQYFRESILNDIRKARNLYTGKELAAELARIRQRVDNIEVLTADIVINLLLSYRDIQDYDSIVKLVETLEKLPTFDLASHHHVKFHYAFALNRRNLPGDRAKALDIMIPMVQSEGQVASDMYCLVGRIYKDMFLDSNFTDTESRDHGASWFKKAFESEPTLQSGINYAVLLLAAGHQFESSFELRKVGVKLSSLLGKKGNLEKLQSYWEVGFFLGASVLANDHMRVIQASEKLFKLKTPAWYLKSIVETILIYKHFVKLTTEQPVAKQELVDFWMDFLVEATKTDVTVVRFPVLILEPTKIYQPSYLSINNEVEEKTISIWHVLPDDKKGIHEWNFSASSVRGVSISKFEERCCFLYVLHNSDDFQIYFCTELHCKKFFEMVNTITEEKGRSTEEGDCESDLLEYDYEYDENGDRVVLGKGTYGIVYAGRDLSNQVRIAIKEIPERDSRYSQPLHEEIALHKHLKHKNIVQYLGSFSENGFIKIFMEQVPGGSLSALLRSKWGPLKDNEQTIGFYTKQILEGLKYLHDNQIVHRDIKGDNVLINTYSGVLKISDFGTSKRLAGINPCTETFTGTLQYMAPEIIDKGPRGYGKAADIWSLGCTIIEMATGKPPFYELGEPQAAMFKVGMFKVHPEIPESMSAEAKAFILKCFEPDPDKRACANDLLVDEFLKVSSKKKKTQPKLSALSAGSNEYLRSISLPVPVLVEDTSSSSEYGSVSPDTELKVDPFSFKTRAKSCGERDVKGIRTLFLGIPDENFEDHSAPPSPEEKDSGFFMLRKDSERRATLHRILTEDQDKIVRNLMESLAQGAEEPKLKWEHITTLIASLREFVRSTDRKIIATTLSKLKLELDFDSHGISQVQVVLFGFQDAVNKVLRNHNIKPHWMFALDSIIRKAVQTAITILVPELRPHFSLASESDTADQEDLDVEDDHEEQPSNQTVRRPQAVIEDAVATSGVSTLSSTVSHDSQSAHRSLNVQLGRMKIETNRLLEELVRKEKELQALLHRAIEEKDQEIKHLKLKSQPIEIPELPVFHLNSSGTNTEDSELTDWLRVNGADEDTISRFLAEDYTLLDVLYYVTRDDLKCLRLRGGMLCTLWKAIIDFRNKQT
Experiment: ASK1 autophosphorylation (Thr838) assay in HEK293 cells overexpressing human ASK1
Type: cell-based
Settings: HEK pASK1 assay; standard benzamide ASK1 inhibitor = 100% inhibition, DMSO = 0%
Report only the number, with the unit % understood.

Examples with answers:
Cc1ccc(C2CC(N3CCN(c4cccc(-c5nncn5C(C)C)n4)C3=O)C2)cn1 (single isomer, unassigned) = 97.5
CC(C)n1cc(C2CC(N3CCN(c4cccc(-c5nncn5C(C)C)n4)C3=O)C2)cn1 (centres unmarked) = 102
CC(C)n1cnnc1-c1cccc(N2CCN(C3CC(n4cnc(C(F)(F)F)c4)C3)C2=O)n1 (centres unmarked) = 98.5
CC(C)n1cnnc1-c1cccc(N2CCN(C3CC(n4cnc(C5CC5)c4)C3)C2=O)n1 (single isomer, unassigned) = 105

From here, focus on the item given below.
Please give the documented Efficacy of CC(C)n1cnnc1-c1cccc(N2CCN(C3CC(n4cnc(C5CC5)n4)C3)C2=O)n1 (centres unmarked) 99
